Target of assay: 5-hydroxytryptamine receptor 2A (Rattus norvegicus, UniProt P14842)
Sequence (P14842 whole entry): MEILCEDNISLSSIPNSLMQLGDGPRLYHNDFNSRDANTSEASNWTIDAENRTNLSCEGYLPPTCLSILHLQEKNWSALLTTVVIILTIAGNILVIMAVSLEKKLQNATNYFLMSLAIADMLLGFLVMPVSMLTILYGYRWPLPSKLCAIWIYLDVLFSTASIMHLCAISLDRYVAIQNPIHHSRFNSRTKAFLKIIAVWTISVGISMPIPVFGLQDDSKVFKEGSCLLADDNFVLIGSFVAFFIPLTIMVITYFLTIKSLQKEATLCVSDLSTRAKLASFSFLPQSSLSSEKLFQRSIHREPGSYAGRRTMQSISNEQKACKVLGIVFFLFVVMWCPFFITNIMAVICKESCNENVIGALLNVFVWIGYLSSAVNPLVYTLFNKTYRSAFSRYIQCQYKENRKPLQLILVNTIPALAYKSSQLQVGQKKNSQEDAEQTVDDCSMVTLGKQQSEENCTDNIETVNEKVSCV
pKi: −log10 of the molar value.
Experimental readout: pKi

Using 5-hydroxytryptamine receptor 2A (Rattus norvegicus, UniProt P14842) as the test system, report measured pKi of CC(CF)NCC(O)COc1cccc2[nH]c3ccccc3c12 [Fluorocarazolol,(S)] .
< 5.00

---

Target of assay: D(4) dopamine receptor (Rattus norvegicus, UniProt P30729)
Sequence (P30729 whole entry): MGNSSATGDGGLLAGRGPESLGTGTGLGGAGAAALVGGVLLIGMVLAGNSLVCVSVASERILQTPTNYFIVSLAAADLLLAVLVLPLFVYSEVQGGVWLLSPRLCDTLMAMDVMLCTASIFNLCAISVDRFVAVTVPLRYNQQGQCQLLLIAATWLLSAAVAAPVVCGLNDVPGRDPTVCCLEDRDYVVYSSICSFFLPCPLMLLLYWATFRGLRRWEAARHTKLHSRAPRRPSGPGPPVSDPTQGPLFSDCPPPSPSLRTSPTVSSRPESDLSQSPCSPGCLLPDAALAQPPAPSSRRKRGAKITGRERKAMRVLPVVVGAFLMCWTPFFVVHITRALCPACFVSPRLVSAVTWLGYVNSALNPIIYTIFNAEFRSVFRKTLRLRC
pKi: −log10 of the molar value.
Experimental readout: pKi

For the compound CC(CF)NCC(O)COc1cccc2[nH]c3ccccc3c12 [Fluorocarazolol,(S)] , give its reported pKi.
< 5.00
